Documented kinase still bound, per cent of control across a set of molecules
TARGET_ENTITY: PAK7 (human) (UniProt Q9P286)
Sequence (Q9P286 whole entry, looked up): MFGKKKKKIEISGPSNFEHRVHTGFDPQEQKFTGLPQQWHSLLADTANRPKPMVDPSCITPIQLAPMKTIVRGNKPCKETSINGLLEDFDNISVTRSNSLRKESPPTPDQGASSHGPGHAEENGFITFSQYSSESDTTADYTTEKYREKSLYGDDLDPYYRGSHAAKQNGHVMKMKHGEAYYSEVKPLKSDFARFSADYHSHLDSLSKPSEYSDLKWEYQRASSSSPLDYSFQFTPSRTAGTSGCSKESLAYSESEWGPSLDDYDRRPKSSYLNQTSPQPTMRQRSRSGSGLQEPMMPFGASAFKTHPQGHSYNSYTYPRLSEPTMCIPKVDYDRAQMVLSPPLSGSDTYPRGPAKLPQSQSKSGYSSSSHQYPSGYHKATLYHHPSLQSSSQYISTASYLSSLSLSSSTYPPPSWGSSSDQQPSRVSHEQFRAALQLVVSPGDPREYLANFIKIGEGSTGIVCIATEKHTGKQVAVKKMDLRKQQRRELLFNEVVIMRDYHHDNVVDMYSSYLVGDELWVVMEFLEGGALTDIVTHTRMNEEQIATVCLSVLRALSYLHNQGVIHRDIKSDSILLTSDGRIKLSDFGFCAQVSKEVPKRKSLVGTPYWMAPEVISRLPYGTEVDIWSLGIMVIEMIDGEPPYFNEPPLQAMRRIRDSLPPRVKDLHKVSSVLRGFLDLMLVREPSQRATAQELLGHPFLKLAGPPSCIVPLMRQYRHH
METHOD_NOTES: KINOMEscan competition binding
PARTICULARS: compound 10.0 µM
A complete answer gives the number followed by the unit.

Previously resolved entries follow.
>  <COMPOUND_STRUCTURE_STRING>
COc1ccc(N(C(=O)Oc2c(C)cccc2C)c2ccnc(Nc3ccc(N4CCN(C)CC4)cc3)n2)c(OC)c1

>  <TARGET_ENTITY>
PAK7 (human) (UniProt Q9P286)

>  <kinase still bound, per cent of control>
82%

$$$$
>  <COMPOUND_STRUCTURE_STRING>
CCN1CCN(C(=O)Cc2ccc(Nc3ncc(F)c(Nc4ccc(C(=O)Nc5ccccc5Cl)cc4)n3)cc2)CC1

>  <TARGET_ENTITY>
PAK7 (human) (UniProt Q9P286)

>  <kinase still bound, per cent of control>
56%

$$$$
>  <COMPOUND_STRUCTURE_STRING>
COc1cc(C(=O)N2CCC(N3CCN(C)CC3)CC2)ccc1Nc1ncc2c(n1)N(C)c1ccccc1C(=O)N2C

>  <TARGET_ENTITY>
PAK7 (human) (UniProt Q9P286)

>  <kinase still bound, per cent of control>
96%

$$$$

Turning to the following molecule.
Item: CCN(CC)CCCCNc1ncc2c(n1)N(C)C(=O)N(c1c(Cl)c(OC)cc(OC)c1Cl)C2 | kinase still bound, per cent of control: 100%

* * *

TARGET_ENTITY: ACVRL1 (human)
METHOD_NOTES: KINOMEscan competition binding
PARTICULARS: compound 10.0 µM
Documented kinase still bound, per cent of control across a set of compounds
Field format: number, assumed %, no unit text.

Previously resolved entries follow.
>  <COMPOUND_STRUCTURE_STRING>
COc1ccc(N(C(=O)Oc2c(C)cccc2C)c2ccnc(Nc3ccc(N4CCN(C)CC4)cc3)n2)c(OC)c1

>  <UNITS>
%

>  <kinase still bound, per cent of control>
2.7

$$$$
>  <COMPOUND_STRUCTURE_STRING>
COc1cc(C(=O)N2CCC(N3CCN(C)CC3)CC2)ccc1Nc1ncc2c(n1)N(C)c1ccccc1C(=O)N2C

>  <UNITS>
%

>  <kinase still bound, per cent of control>
100

$$$$
>  <COMPOUND_STRUCTURE_STRING>
C=CC(=O)Nc1ccc(CN(C(=O)Nc2c(Cl)c(OC)cc(OC)c2Cl)c2cc(Nc3ccc(N4CCN(C)CC4)cc3)ncn2)cc1

>  <UNITS>
%

>  <kinase still bound, per cent of control>
100

$$$$
>  <COMPOUND_STRUCTURE_STRING>
C=CC(=O)Nc1cc(-n2c(=O)ccc3cnc4ccc(-c5cn[nH]c5)cc4c32)ccc1C

>  <UNITS>
%

>  <kinase still bound, per cent of control>
42

$$$$
>  <COMPOUND_STRUCTURE_STRING>
COc1cc2ncnc(-n3nc(-c4ccccn4)nc3N)c2cc1OC

>  <UNITS>
%

>  <kinase still bound, per cent of control>
15

$$$$
>  <COMPOUND_STRUCTURE_STRING>
O=c1cc(N2CCOCC2)oc2c(-c3cccc4c3sc3ccccc34)cccc12

>  <UNITS>
%

>  <kinase still bound, per cent of control>
94

$$$$
>  <COMPOUND_STRUCTURE_STRING>
NC(=O)Nc1cc(-c2cccc(F)c2)sc1C(=O)N[C@@H]1CCCNC1

>  <UNITS>
%

>  <kinase still bound, per cent of control>
76

$$$$

Turning to the following compound.
Item: CCN1CCN(C(=O)Cc2ccc(Nc3ncc(F)c(Nc4ccc(C(=O)Nc5ccccc5Cl)cc4)n3)cc2)CC1 | kinase still bound, per cent of control: 100

* * *

TARGET_ENTITY: STK4 (human)
METHOD_NOTES: KINOMEscan competition binding
PARTICULARS: compound 10.0 µM
PARAMETER_MEASURED: kinase still bound, per cent of control

>  <COMPOUND_STRUCTURE_STRING>
CCN(CC)CCCCNc1ncc2cc(-c3cc(OC)cc(OC)c3)c(NC(=O)NC(C)(C)C)nc2n1

>  <kinase still bound, per cent of control>
100%

$$$$
>  <COMPOUND_STRUCTURE_STRING>
COc1cc(C(=O)N2CCC(N3CCN(C)CC3)CC2)ccc1Nc1ncc2c(n1)N(C)c1ccccc1C(=O)N2C

>  <kinase still bound, per cent of control>
100%

$$$$
>  <COMPOUND_STRUCTURE_STRING>
O=C1NC(=O)/C(=C/c2ccc3nccc(-c4ccncc4)c3c2)S1

>  <kinase still bound, per cent of control>
81%

$$$$
>  <COMPOUND_STRUCTURE_STRING>
CCN(CC)CCCCNc1ncc2c(n1)N(C)C(=O)N(c1c(Cl)c(OC)cc(OC)c1Cl)C2

>  <kinase still bound, per cent of control>
100%

$$$$
>  <COMPOUND_STRUCTURE_STRING>
COc1ccc(N(C(=O)Oc2c(C)cccc2C)c2ccnc(Nc3ccc(N4CCN(C)CC4)cc3)n2)c(OC)c1

>  <kinase still bound, per cent of control>
42%

$$$$

Item: COCC(=O)NC/C=C/c1ccc2ncnc(Nc3ccc(Oc4ccc(C)nc4)c(C)c3)c2c1 | kinase still bound, per cent of control: 87%

Item: COc1cc2ncn(-c3cc(OCc4ccccc4C(F)(F)F)c(C(N)=O)s3)c2cc1OC | kinase still bound, per cent of control: 56%

Item: C=CC(=O)Nc1cc(-n2c(=O)ccc3cnc4ccc(-c5cn[nH]c5)cc4c32)ccc1C | kinase still bound, per cent of control: 83%

Item: CN(C)C/C=C/C(=O)Nc1ccc(C(=O)Nc2cccc(Nc3nccc(-c4cccnc4)n3)c2)cc1 | kinase still bound, per cent of control: 100%

Item: C=CC(=O)Nc1ccc(CN(C(=O)Nc2c(Cl)c(OC)cc(OC)c2Cl)c2cc(Nc3ccc(N4CCN(C)CC4)cc3)ncn2)cc1 | kinase still bound, per cent of control: 100%

Item: O=C(Nc1cccc(Nc2ncc(Br)c(NCCc3cnc[nH]3)n2)c1)N1CCCC1 | kinase still bound, per cent of control: 12%

Item: COc1cc(N2CCN(C)CC2)ccc1Nc1ncc2c(n1)N(C)c1ccccc1C(=O)N2C | kinase still bound, per cent of control: 100%

Item: N#CCNC(=O)c1ccc(-c2ccnc(Nc3ccc(N4CCOCC4)cc3)n2)cc1 | kinase still bound, per cent of control: 100%

Item: CCN1CCN(C(=O)Cc2ccc(Nc3ncc(F)c(Nc4ccc(C(=O)Nc5ccccc5Cl)cc4)n3)cc2)CC1 | kinase still bound, per cent of control: 98%

Item: C[C@@H](Oc1cc(-c2cnn(C3CCNCC3)c2)cnc1N)c1c(Cl)ccc(F)c1Cl | kinase still bound, per cent of control: 3.9%

Item: CS(=O)(=O)N1CCN(Cc2cc3nc(-c4cccc5[nH]ncc45)nc(N4CCOCC4)c3s2)CC1 | kinase still bound, per cent of control: 100%

Item: COc1cc2ncnc(-n3nc(-c4ccccn4)nc3N)c2cc1OC | kinase still bound, per cent of control: 61%

Item: CNC(=O)c1ccc(Nc2cc(Nc3ccccc3S(=O)(=O)C(C)C)c3cc[nH]c3n2)nc1 | kinase still bound, per cent of control: 4.2%

* * *

TARGET_ENTITY: CLK4 (human) (UniProt Q9HAZ1)
Sequence (Q9HAZ1 whole entry, looked up): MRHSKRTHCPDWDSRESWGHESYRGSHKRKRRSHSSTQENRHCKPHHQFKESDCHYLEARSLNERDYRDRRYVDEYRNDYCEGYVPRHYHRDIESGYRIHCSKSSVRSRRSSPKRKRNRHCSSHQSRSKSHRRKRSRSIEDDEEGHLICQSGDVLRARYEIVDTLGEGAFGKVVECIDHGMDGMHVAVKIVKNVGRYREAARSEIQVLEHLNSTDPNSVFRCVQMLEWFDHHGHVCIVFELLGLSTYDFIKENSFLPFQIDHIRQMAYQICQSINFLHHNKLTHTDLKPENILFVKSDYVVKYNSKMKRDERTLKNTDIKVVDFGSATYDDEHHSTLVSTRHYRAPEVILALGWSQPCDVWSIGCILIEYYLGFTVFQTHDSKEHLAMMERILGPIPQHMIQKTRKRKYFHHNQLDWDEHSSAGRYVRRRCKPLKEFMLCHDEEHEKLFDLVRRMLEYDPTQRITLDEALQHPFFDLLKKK
METHOD_NOTES: KINOMEscan competition binding
PARTICULARS: compound 10.0 µM
PARAMETER_MEASURED: kinase still bound, per cent of control
A complete answer gives the number followed by the unit.

>  <COMPOUND_STRUCTURE_STRING>
C=CC(=O)Nc1ccc(CN(C(=O)Nc2c(Cl)c(OC)cc(OC)c2Cl)c2cc(Nc3ccc(N4CCN(C)CC4)cc3)ncn2)cc1

>  <kinase still bound, per cent of control>
100%

$$$$
>  <COMPOUND_STRUCTURE_STRING>
COc1cc(C(=O)N2CCC(N3CCN(C)CC3)CC2)ccc1Nc1ncc2c(n1)N(C)c1ccccc1C(=O)N2C

>  <kinase still bound, per cent of control>
54%

$$$$

Item: C=CC(=O)Nc1cc(-n2c(=O)ccc3cnc4ccc(-c5cn[nH]c5)cc4c32)ccc1C | kinase still bound, per cent of control: 3%

Item: COc1cc2ncn(-c3cc(OCc4ccccc4C(F)(F)F)c(C(N)=O)s3)c2cc1OC | kinase still bound, per cent of control: 45%

* * *

TARGET_ENTITY: YSK4 (human)
METHOD_NOTES: KINOMEscan competition binding
PARTICULARS: compound 10.0 µM
PARAMETER_MEASURED: kinase still bound, per cent of control (%)
Field format: number, assumed %, no unit text.

>  <COMPOUND_STRUCTURE_STRING>
COc1cc(C(=O)N2CCC(N3CCN(C)CC3)CC2)ccc1Nc1ncc2c(n1)N(C)c1ccccc1C(=O)N2C

>  <UNITS>
%

>  <kinase still bound, per cent of control>
99

$$$$
>  <COMPOUND_STRUCTURE_STRING>
CS(=O)(=O)N1CCN(Cc2cc3nc(-c4cccc5[nH]ncc45)nc(N4CCOCC4)c3s2)CC1

>  <UNITS>
%

>  <kinase still bound, per cent of control>
100

$$$$
>  <COMPOUND_STRUCTURE_STRING>
COCC(=O)NC/C=C/c1ccc2ncnc(Nc3ccc(Oc4ccc(C)nc4)c(C)c3)c2c1

>  <UNITS>
%

>  <kinase still bound, per cent of control>
100

$$$$

Item: CCN(CC)CCCCNc1ncc2c(n1)N(C)C(=O)N(c1c(Cl)c(OC)cc(OC)c1Cl)C2 | kinase still bound, per cent of control: 100

Item: COc1ccc(N(C(=O)Oc2c(C)cccc2C)c2ccnc(Nc3ccc(N4CCN(C)CC4)cc3)n2)c(OC)c1 | kinase still bound, per cent of control: 6

Item: CN(C)C/C=C/C(=O)Nc1ccc(C(=O)Nc2cccc(Nc3nccc(-c4cccnc4)n3)c2)cc1 | kinase still bound, per cent of control: 0.1

Item: C=CC(=O)Nc1cc(-n2c(=O)ccc3cnc4ccc(-c5cn[nH]c5)cc4c32)ccc1C | kinase still bound, per cent of control: 1.2

Item: COc1cc(N2CCN(C)CC2)ccc1Nc1ncc2c(n1)N(C)c1ccccc1C(=O)N2C | kinase still bound, per cent of control: 100

Item: COc1cc2ncn(-c3cc(OCc4ccccc4C(F)(F)F)c(C(N)=O)s3)c2cc1OC | kinase still bound, per cent of control: 34

Item: O=c1cc(N2CCOCC2)oc2c(-c3cccc4c3sc3ccccc34)cccc12 | kinase still bound, per cent of control: 100
